- Tested on: E. coli ATCC BAA-196_TEM-10
- procedure.details: MIC by broth microdilution (CLSI), E. coli ATCC BAA-196
- Assay type: cell-based
- run.conditions: Escherichia coli, ATCCBAA196; E. coli ATCC BAA-196, TEM-10, ESBL producing strain; 10000 cfu/well; cation-adjusted Mueller Hinton broth with 20 μM human apo-transferrin; read-out: minimum growth inhibition concentration (MIC)
As shown below, each of these compounds has a reported MIC value.
Lab book: enter the figure in µg/mL, no units written.

Examples with answers:
compound: NCC[N+]1(CC2=C(C(=O)[O-])N3C(=O)[C@@H](NC(=O)/C(=N\OC(CNC(=O)c4ccc(O)c(O)c4Cl)C(=O)O)c4nc(N)sc4Cl)[C@H]3SC2)CCCC1 (stereo partly drawn)
MIC (µg/mL): 0.125

compound: Nc1nc(/C(=N/OC(CNC(=O)c2ccc(O)c(O)c2Cl)C(=O)[O-])C(=O)N[C@@H]2C(=O)N3C(C(=O)[O-])=C(C[N+]4(CCNC(=O)C[C@@H](N)CC(=O)O)CCCC4)CS[C@H]23)c(Cl)s1.[Na+] (stereo partly drawn)
MIC (µg/mL): 0.5

compound: Nc1nc(/C(=N/OC(CNC(=O)c2ccc(O)c(O)c2Cl)C(=O)[O-])C(=O)N[C@@H]2C(=O)N3C(C(=O)[O-])=C(C[N+]45CCC(CC4)CC5)CS[C@H]23)cs1.[Na+] (stereo partly drawn)
MIC (µg/mL): 0.5

compound: Nc1nc(/C(=N/OC(CNC(=O)c2ccc(O)c(O)c2Cl)C(=O)[O-])C(=O)N[C@@H]2C(=O)N3C(C(=O)[O-])=C(C[N+]45CCC(CC4)CC5)CS[C@H]23)ns1.[Na+] (stereo partly drawn)
MIC (µg/mL): 4

compound: CC1(C)CCc2ccc[n+](CC3=C(C(=O)[O-])N4C(=O)[C@@H](NC(=O)/C(=N\O[C@@H](CNC(=O)c5ccc(O)c(O)c5Cl)C(=O)[O-])c5csc(N)n5)[C@H]4SC3)c21.[Na+]
MIC (µg/mL): 0.5

compound: C[N+]1(CC2=C(C(=O)[O-])N3C(=O)[C@@H](NC(=O)/C(=N\OC[C@H](NC(=O)c4ccc(O)c(O)c4Cl)C(=O)O)c4csc(N)n4)[C@H]3SC2)[C@@H]2CC[C@H]1C[C@@H](N)C2 (stereo partly drawn)
MIC (µg/mL): 0.25

compound: Nc1nc(/C(=N/O[C@@H](CNC(=O)c2ccc(O)c(O)c2Cl)C(=O)[O-])C(=O)N[C@@H]2C(=O)N3C(C(=O)[O-])=C(C[N+]45CCC(CNC(=O)CC[C@H](N)C(=O)O)(CC4)CC5)CS[C@H]23)cs1.[Na+]
MIC (µg/mL): 2

compound: C[N+]1(CC2=C(C(=O)[O-])N3C(=O)[C@@H](NC(=O)/C(=N\OC(CNC(=O)c4ccc(O)c(O)c4Cl)C(=O)O)c4csc(N)n4)[C@H]3SC2)[C@@H]2CC[C@H]1C[C@@H](N)C2 (stereo partly drawn)
MIC (µg/mL): 0.25

Could you now consider this next compound?
Query: Please look at this compound and report its MIC: `Nc1nc(/C(=N/OC[C@H](NC(=O)c2ccc(O)c(O)c2Cl)C(=O)[O-])C(=O)N[C@@H]2C(=O)N3C(C(=O)[O-])=C(C[n+]4cccc5c4CCC5)CS[C@H]23)cs1.[Na+]`
Response: 1

* * *

- Tested on: P. aeruginosa SR27001(MDRP, IMP-1+)
- procedure.details: MIC by broth microdilution (CLSI), P. aeruginosa SR27001
- Type: cell-based
- run.conditions: Pseudomonas aeruginosa; P. aeruginosa SR27001, MDRP, IMP-1, MBL producing carbapenem-resistant strain; 10000 cfu/well; cation-adjusted Mueller Hinton broth with 20 μM human apo-transferrin; read-out: minimum growth inhibition concentration (MIC)
readout.kind: log10(MIC) (log10 of the value in µg/mL)
Could you please treat all values as log10 of MIC in µg/mL?

molecule: C[N+]1(CC2=C(C(=O)[O-])N3C(=O)[C@@H](NC(=O)/C(=N\O[C@@H](CNC(=O)c4ccc(O)c(O)c4Cl)C(=O)[O-])c4csc(N)n4)[C@H]3SC2)CC2CCCC2C1.[Na+] (stereo partly drawn)
log10(MIC): 0.60

molecule: C[N+]1(CC2=C(C(=O)[O-])N3C(=O)[C@@H](NC(=O)/C(=N\OC(CNC(=O)c4ccc(O)c(O)c4Cl)C(=O)O)c4csc(N)n4)[C@H]3SC2)[C@@H]2CC[C@H]1C[C@@H](N)C2 (stereo partly drawn)
log10(MIC): -0.60

molecule: Nc1nc(/C(=N/OC(CNC(=O)c2ccc(O)c(O)c2Cl)C(=O)[O-])C(=O)N[C@@H]2C(=O)N3C(C(=O)[O-])=C(C[N+]4(CCNC(=O)C[C@@H](N)CC(=O)O)CCCC4)CS[C@H]23)c(Cl)s1.[Na+] (stereo partly drawn)
log10(MIC): 0.90

molecule: NCC[N+]1(CC2=C(C(=O)[O-])N3C(=O)[C@@H](NC(=O)/C(=N\OC[C@H](NC(=O)c4ccc(O)c(O)c4Cl)C(=O)O)c4csc(N)n4)[C@H]3SC2)CCCC1
log10(MIC): -0.60

molecule: Nc1nc(/C(=N/OC(CNC(=O)c2ccc(O)c(O)c2Cl)C(=O)[O-])C(=O)N[C@@H]2C(=O)N3C(C(=O)[O-])=C(C[N+]45CCC(CC4)CC5)CS[C@H]23)c(Cl)s1.[Na+] (stereo partly drawn)
log10(MIC): 0.60

Query: Item Nc1nc(/C(=N/OC(CNC(=O)c2ccc(O)c(O)c2Cl)C(=O)[O-])C(=O)N[C@@H]2C(=O)N3C(C(=O)[O-])=C(C[N+]4(CCNC(=O)C[C@@H](N)CC(=O)O)CCCC4)CS[C@H]23)cs1.[Na+] (stereo partly drawn) : provide log10(MIC)
Response: 0.60

Query: Hello, please tell me recorded log10(MIC) for this one: NCC[N+]1(CC2=C(C(=O)[O-])N3C(=O)[C@@H](NC(=O)/C(=N\OC(CNC(=O)c4ccc(O)c(O)c4Cl)C(=O)O)c4nc(N)sc4Cl)[C@H]3SC2)CCCC1 (stereo partly drawn)
Response: 0.30

Query: Name the recorded log10(MIC) of the molecule listed here: C[N+]1(CC2=C(C(=O)[O-])N3C(=O)[C@@H](NC(=O)/C(=N\OC[C@H](NC(=O)c4ccc(O)c(O)c4Cl)C(=O)O)c4csc(N)n4)[C@H]3SC2)[C@@H]2CC[C@H]1C[C@@H](N)C2 (stereo partly drawn)
Response: -0.30

Query: Specify log10(MIC) for Nc1nc(/C(=N/OC(CNC(=O)c2ccc(O)c(O)c2Cl)C(=O)[O-])C(=O)N[C@@H]2C(=O)N3C(C(=O)[O-])=C(C[N+]4(CCNC(=O)CC[C@H](N)C(=O)O)CCCC4)CS[C@H]23)c(Cl)s1.[Na+] (stereo partly drawn) and stop.
Response: 0.30

Query: Please report log10(MIC) for the following molecule: Nc1nc(/C(=N/OC(CNC(=O)c2ccc(O)c(O)c2Cl)C(=O)[O-])C(=O)N[C@@H]2C(=O)N3C(C(=O)[O-])=C(C[N+]4(CCNC(=O)CC[C@H](N)C(=O)O)CCCC4)CS[C@H]23)cs1.[Na+] (stereo partly drawn)
Response: 0.60

* * *

- System: P. aeruginosa SR27001(MDRP, IMP-1+)
- procedure.details: MIC by broth microdilution (CLSI), P. aeruginosa SR27001
- Assay type: cell-based
- run.conditions: Pseudomonas aeruginosa; P. aeruginosa SR27001, MDRP, IMP-1, MBL producing carbapenem-resistant strain; 10000 cfu/well; cation-adjusted Mueller Hinton broth with 20 μM human apo-transferrin; read-out: minimum growth inhibition concentration (MIC)
readout.kind: MIC (mg/L)
# output: bare number, implied unit mg/L

For orientation, consider the following solved cases.
compound: Nc1nc(/C(=N/OC(CNC(=O)c2ccc(O)c(O)c2Cl)C(=O)[O-])C(=O)N[C@@H]2C(=O)N3C(C(=O)[O-])=C(C[N+]45CCCC4CCC5)CS[C@H]23)c(Cl)s1.[Na+] (stereo partly shown) [Compound I-28]
readout.kind: MIC
unit.spec: mg/L
data.value: 8
//
compound: Nc1nc(/C(=N/OC(C[C@H](NC(=O)c2ccc(O)c(O)c2Cl)C(=O)[O-])C(=O)[O-])C(=O)N[C@@H]2C(=O)N3C(C(=O)[O-])=C(C[N+]4(CCNC(=O)CC[C@H](N)C(=O)O)CCCC4)CS[C@H]23)cs1.[Na+].[Na+] (stereo partly shown) [Compound I-32]
readout.kind: MIC
unit.spec: mg/L
data.value: 2

Could you now consider this next compound?
Query: Write MIC of Nc1nc(/C(=N/OC(CNC(=O)c2ccc(O)c(O)c2Cl)C(=O)[O-])C(=O)N[C@@H]2C(=O)N3C(C(=O)[O-])=C(C[N+]45CCC(CC4)CC5)CS[C@H]23)cs1.[Na+] (stereo partly shown) [Compound I-9] ; system used: P. aeruginosa SR27001(MDRP, IMP-1+)
Response: 2
